# Test system: LPS-induced microglia activation
# protocol_details: Image-based assay of LPS-induced microglia activation (HTS and dose response)
# Type: cell-based, rat
# measurement_context: Rattus norvegicus, Microglia, Table 7; read-out: LPS_IC50
Where a name gives a salt, the structure may show the parent alone.
measurement_type: IC50 (nM)
// units = nM; emit number, no label

Recorded results for 3 compounds are shown here.
* C[C@H]1C[C@@H]2[C@H]([C@@H](O)C[C@@]3(C)[C@H]2CC[C@]3(O)C(=O)CO)[C@@]2(C)C=CC(=O)C=C12 [Methylprednisolone, reference compound] | 2
* CC1(C)O[C@@H]2C[C@H]3[C@@H]4C[C@H](F)C5=CC(=O)C=C[C@]5(C)[C@@]4(F)[C@@H](O)C[C@]3(C)[C@]2(C(=O)CO)O1 [Fluocinolone acetonide, reference compound] | 2
* C[C@H]1C[C@H]2[C@@H]3CCC4=CC(=O)C=C[C@]4(C)[C@@]3(F)[C@@H](O)C[C@]2(C)[C@@]1(O)C(=O)CO [Betamethasone, reference compound] | 2

What value of IC50 has been recorded for this entry: CC(=O)OCC(=O)[C@@]1(O)CC[C@H]2[C@@H]3CCC4=CC(=O)C=C[C@]4(C)[C@H]3[C@@H](O)C[C@@]21C [Prednisolone acetate, reference compound] 3

Entry C[C@@H]1C[C@H]2[C@@H]3CCC4=CC(=O)C=C[C@]4(C)[C@@]3(F)[C@@H](O)C[C@]2(C)[C@@]1(O)C(=O)CO [Dexamethasone, reference compound] please 2

Entry N[C@H](C(=O)O)[C@@H]1CC(Cl)=NO1 please 1660

Entry Cn1nnnc1SCC1=C(C(=O)O)N2C(=O)[C@@H](NC(=O)[C@H](O)c3ccccc3)[C@H]2SC1 [cefamandole sodium] please 2

Entry CO[C@@H]1C[C@@H](C[C@H]2CC[C@H](C)[C@H]([C@@H](C)C(=O)O)O2)O[C@]2(O[C@](C)([C@H]3CC[C@@](C)([C@@H]4O[C@@H]([C@H]5O[C@@](O)(CO)[C@H](C)C[C@@H]5C)C[C@@H]4C)O3)C[C@H]2C)[C@@H]1C [nigericin sodium] please 65

Entry CC[C@]1(O)C[C@@H]2CN(CCc3c([nH]c4ccccc34)[C@@](C(=O)OC)(c3cc4c(cc3OC)N(C)[C@H]3[C@@](O)(C(=O)OC)[C@H](OC(C)=O)[C@]5(CC)C=CCN6CC[C@]43[C@@H]65)C2)C1 [Vinblastine sulfate, reference compound] please 628

Entry CC(NCCC(c1ccccc1)c1ccccc1)c1ccccc1 (centres unmarked) [Fendiline hydrochloride, reference compound] please 900

Entry CC(C)=CCc1c2c(c3occ(-c4ccc(O)c(O)c4)c(=O)c3c1O)C=CC(C)(C)O2 please 123

###

# Test system: fibrin- and LPS-induced microglia activation
# protocol_details: cells
# Format: cell-based, rat
# measurement_context: HTS of 1907 compounds, quadrant by fibrin and LPS inhibition
Where a name gives a salt, the structure may show the parent alone.
measurement_type: Quadrant (FIG. 5b)

Recorded results for 5 compounds are shown here.
* CN(C)CCCOc1nn(Cc2ccccc2)c2ccccc12 [Benzydamine hydrochloride, reference compound] | Q2
* O=C1C(CC[S+]([O-])c2ccccc2)C(=O)N(c2ccccc2)N1c1ccccc1 (stereo not shown) | Q4
* CC(C)c1nc(N(C)S(C)(=O)=O)nc(-c2ccc(F)cc2)c1/C=C/[C@@H](O)C[C@@H](O)CC(=O)O [Rosuvastatin, reference compound] | Q2
* Nc1ccc(S(=O)(=O)Nc2ccccn2)cc1 | Q4
* CC(=O)O[C@]1(C(C)=O)CC[C@H]2[C@@H]3C=C(C)C4=CC(=O)CC[C@]4(C)[C@H]3CC[C@@]21C [Megestrol acetate, reference compound] | Q3

What value of Quadrant (FIG. 5b) has been recorded for this entry: CC(C)(C)NC[C@H](O)COc1nsnc1N1CCOCC1 [Timolol Maleate] Q4

Entry CC[C@@H](c1cccc(O)c1)[C@@H](C)CN(C)C [Tapentadol Hydrochloride] please Q4

Entry CC1=C(CC(=O)O)c2cc(F)ccc2/C1=C\c1ccc([S+](C)[O-])cc1 (stereo not shown) please Q4

Entry Cc1cc(C(C)(C)C)cc(C)c1CC1=NCCN1 please Q4

Entry O=C1O[C@H]([C@@H](O)CO)C(O)=C1O please Q4
